// interaction score lookup, one value per entry
- Tested on: T1, 4H_APH
- T1 chain: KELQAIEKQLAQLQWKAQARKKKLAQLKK
- Assay: two-hybrid library CCmax;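 note: natural log of median RNA to DNA barcode read ratio; higher means stronger binding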
- Condition info: mean of both orientations
Experimental readout: interaction score

>>> reported_measurement("DKNAALKAKIAALKAEIAALEAEIAALEG [4H3905-AA]")
-1.84
>>> reported_measurement("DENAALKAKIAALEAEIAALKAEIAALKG [4H1802-AA]")
-1.86
>>> reported_measurement("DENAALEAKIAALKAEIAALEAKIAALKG [4H1350-AA]")
-1.67
>>> reported_measurement("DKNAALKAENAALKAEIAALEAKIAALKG [4H3782-AA]")
-2.26
>>> reported_measurement("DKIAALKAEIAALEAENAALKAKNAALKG [4H2592-AA]")
-1.66
>>> reported_measurement("DKNAALEAKIAALKAKIAALKAKIAALKG [4H3438-AA]")
-1.5
>>> reported_measurement("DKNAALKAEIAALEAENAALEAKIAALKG [4H3606-AA]")
-1.27
>>> reported_measurement("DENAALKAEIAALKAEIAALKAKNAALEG [4H1615-AA]")
-1.58
